Hey, just so you know, these numbers are from PubChem BioAssay (NCI).

# Test system: MDA-MB-435 melanoma
# experiment.notes: NCI-60 one-dose screen, 48 h (100 = growth as untreated, 0 = no growth, -100 = all killed)
# study.conditions: 10 µM unless noted
# Protocol: Growth inhibition of the MDA-MB-435 human Melanoma tumor cell line is measured as a screen for anti-cancer activity. Cells are grown in 96 well plates and exposed to the test compound for 48 hours. Compounds are tested at a single concentration, which is 10^-5 M for most compounds. The reported endpoint is percent growth (GI% or GIPRCNT), where numbers from 0 - 100% represent growth inhibition, and numbers from -100% - 0 represent cell death. […]
About 83,000 compounds went through this panel and 20% of them were active in at least one assay; those are over-represented in the sample as a whole.
readout.type: growth (%)
// units = %; emit number, no label

Sample records with growth:
NS(=O)(=O)c1cc(=O)[nH]c(=O)[nH]1
105
Nc1ccn(C2OC(CO)C(O)C2F)c(=O)n1 (stereo not drawn)
78.4

What does the data say about its growth? Entry: CC(=O)Oc1c(Cl)cccc1-c1ccccc1 104

----------
# Tested on: NCI-H23 lung
# experiment.notes: NCI-60 one-dose screen, 48 h (100 = growth as untreated, 0 = no growth, -100 = all killed)
# study.conditions: 10 µM unless noted
The panel holds about 83,000 compounds, 20% with a hit somewhere; the sample as a whole holds those more often.
Each record here notes measured growth.
// units = %; emit number, no label

Sample records with growth:
O=C1C=Cc2ccccc2/C1=C/c1[nH]c(=O)[nH]c1O
51.7
O=C1NCC2CCCC1C2 (stereo not drawn)
105
Nc1ccn(C2OC(CO)C(O)C2F)c(=O)n1 (stereo not drawn)
83.7
COc1ccc2c(Cl)cc(NC(=O)Nc3c(C)cccc3C)nc2c1
96.9
Cc1cccc2ccccc12
104

Here is another compound to look at.
What does the data say about its growth? Entry: CC(=O)[C@@]1(O)CC[C@H]2[C@@H]3CC[C@@H]4CC(=O)CC[C@]4(C)[C@H]3[C@@H](O)C[C@@]21C 96.9

----------
# Tested on: BT-549 breast
# experiment.notes: NCI-60 one-dose screen, 48 h
# study.conditions: 10 µM unless noted
This is part of a sample that, as a whole, favours compounds with a hit. Of some 83,000 tested, about 20% had one in any assay. Active and inactive are the calls of the source. How the source made its calls: active means growth percent below 10; inactive means the rest.
Tick one outcome: active, inactive

CCOc1ccc2c(c1)c(C)cc(C)[n+]2CC
inactive
CC(=O)N(C(C)=O)c1ccc(C)cc1
inactive
CC(C)N(CCCC#N)C(C)C
inactive
CSCCC(NC(=O)C(Cl)Cl)C(=O)O (stereo not given)
inactive
c1ccc2c(NCCCN3CCN(CCCNc4c5ccccc5nc5ccccc45)CC3)c3ccccc3nc2c1
active

What did the test return for COC(=O)c1cccc([N+](=O)[O-])c1 ? inactive

What did the test return for O=C(N/N=C\c1ccc(Cl)cc1Cl)c1ccncc1 ? inactive

What did the test return for CCOS(=O)(=O)c1ccc([N+](=O)[O-])cc1 ? inactive

What did the test return for Clc1ccc(-c2noc(/C=C\c3ccccc3)n2)cc1 ? inactive

What did the test return for CC(=O)CSc1ncnc2nc[nH]c12 ? inactive

What did the test return for Cc1cc(Cl)cc(Cc2cc(Cl)cc(C)c2O)c1O ? active

What did the test return for Cc1[nH]nc(C(N)=O)c1[N+](=O)[O-] ? inactive

What did the test return for CCCCNC(=O)c1ccc(OCC)cc1 ? inactive

What did the test return for NC(=O)c1cc2c3ccccc3ccn2c1-c1ccccc1 ? inactive

What did the test return for C=CCc1cc(OC)c(OC)c(OC)c1 ? inactive

What did the test return for CCOC(=O)C(=O)CC(=O)c1ccccc1 ? inactive

What did the test return for NC(=O)OCCO ? inactive
